Experiment: Drug level in female Beagle dog spleen at 400 mg/kg administered intramuscularly after 3 months
Format: ADME, organism-based, Canis lupus familiaris
Parameters: dose 400 mg/kg, route intramuscular
Conditions: im, read-out: Drug uptake
result_type: concentration at 2191.5 h (ng/g)
Unit ng/g implied. Number only.

Find the recorded concentration at 2191.5 h belonging to "Cc1cc(/C=C/C#N)cc(C)c1Nc1ccnc(Nc2ccc(C#N)cc2)n1" and report it. 46.1

* * *

Assay: Drug level in Beagle dog lymph node popliteal at 5 mg/kg administered intramuscularly after 6 months
Format: ADME, organism-based, Canis lupus familiaris
Set-up: dose 5 mg/kg, route intramuscular
Settings: im, read-out: Drug uptake
result_type: concentration at 4383 h (ng/g)
Express your answer in ng/g, writing the number without its unit.

I'd like to know its concentration at 4383 h. The compound in question is "Cc1cc(/C=C/C#N)cc(C)c1Nc1ccnc(Nc2ccc(C#N)cc2)n1" 30.7

Data origin, for the record: ChEMBL document CHEMBL1687756
